- Tested on: MES-SA human uterine sarcoma cells
- METHOD: Cytotoxicity assay, luminescence ATP detection, MES-SA
- Assay type: cell-based
- CONDITION SET: three days incubation, ATP content, highest concentration 10^-5 M, read-out: ED50 (nM) MES-SA
ASSAY METRIC: EC50 (nM)

[[record]]
compound = "CCC1(O)CC(OC2CC(N(C)C)C(OC3CC(O)C(OC4CC(O)C(O)C(C)O4)C(C)O3)C(C)O2)c2c(O)c3c(c(O)c2C1C(=O)OC)C(=O)c1cccc(O)c1C3=O (centres unmarked)"
tested_on = "MES-SA human uterine sarcoma cells"
qualifier_symbol = "="
observed = 1

[[record]]
compound = "CCC1(O)CC(OC2CC(O)C(OC3CC(O)C(OC4CC(O)C(O)C(C)O4)C(C)O3)C(C)O2)c2c(cc3c(c2O)C(=O)c2c(O)cccc2C3=O)C1O (centres unmarked)"
tested_on = "MES-SA human uterine sarcoma cells"
qualifier_symbol = ">"
observed = 10000

[[record]]
compound = "CC1OC(OC2C(C)OC(OC3CC(C)(O)C(O)c4c(O)c5c(c(O)c43)C(=O)c3c(O)cccc3C5=O)CC2N(C)C)CC(O)C1O (centres unmarked) [Compound H075-11b]"
tested_on = "MES-SA human uterine sarcoma cells"
qualifier_symbol = "="
observed = 60

[[record]]
compound = "CCC1(O)CC(OC2CC(N(C)C)C(OC3CC(O)C(OC4CC(O)C(O)C(C)O4)C(C)O3)C(C)O2)c2c(O)c3c(c(O)c2C1O)C(=O)c1cccc(O)c1C3=O (centres unmarked) [Compound H075-10a]"
tested_on = "MES-SA human uterine sarcoma cells"
qualifier_symbol = "="
observed = 30

[[record]]
compound = "CCC1(O)CC(OC2CC(N(C)C)C(OC3CC(O)C(OC4CC(O)C(O)C(C)O4)C(C)O3)C(C)O2)c2c(cc3c(c2O)C(=O)c2c(O)cccc2C3=O)C1O (centres unmarked)"
tested_on = "MES-SA human uterine sarcoma cells"
qualifier_symbol = "="
observed = 3200

[[record]]
compound = "CC1OC(OC2CC(C)(O)C(O)c3cc4c(c(O)c32)C(=O)c2c(O)cccc2C4=O)CC(N(C)C)C1O (centres unmarked)"
tested_on = "MES-SA human uterine sarcoma cells"
qualifier_symbol = "="
observed = 4200

[[record]]
compound = "COC(=O)C1c2c(O)c3c(c(O)c2C(OC2CC(O)C(OC4CC(O)C(O)C(C)O4)C(C)O2)CC1(C)O)C(=O)c1c(O)cccc1C3=O (centres unmarked)"
tested_on = "MES-SA human uterine sarcoma cells"
qualifier_symbol = "="
observed = 5200

[[record]]
compound = "CC1OC(OC2C(O)CC(OC3CC(C)(O)C(O)c4c(O)c5c(c(O)c43)C(=O)c3c(O)cccc3C5=O)OC2C)CC(O)C1O (centres unmarked) [Compound H075-11e]"
tested_on = "MES-SA human uterine sarcoma cells"
qualifier_symbol = "="
observed = 800


====

- System: MES-SA human uterine sarcoma cells
- METHOD: Cytotoxicity assay, luminescence ATP detection, MES-SA
- Assay type: cell-based
- CONDITION SET: three days incubation, ATP content, highest concentration 10^-5 M, read-out: ED50 (nM) MES-SA
The reader will find reported EC50 values listed item by item below.
ASSAY METRIC: EC50 (nM)

[[record]]
compound = "CC1OC(OC2C(C)OC(OC3CC(C)(O)C(O)c4cc5c(c(O)c43)C(=O)c3c(O)cccc3C5=O)CC2N(C)C)CC(O)C1O (centres unmarked)"
qualifier_symbol = "="
observed = 200

[[record]]
compound = "COC(=O)C1c2cc3c(c(O)c2C(OC2CC(O)C(OC4CC(O)C(OC5CC(O)C(O)C(C)O5)C(C)O4)C(C)O2)CC1(C)O)C(=O)c1c(O)cccc1C3=O (centres unmarked)"
qualifier_symbol = ">"
observed = 10000

[[record]]
compound = "CCC1(O)Cc2cc3c(c(O)c2C(OC2CC(N(C)C)C(OC4CC(O)C(OC5CC(O)C(O)C(C)O5)C(C)O4)C(C)O2)C1)C(=O)c1c(O)cccc1C3=O (centres unmarked)"
qualifier_symbol = "="
observed = 130

[[record]]
compound = "CCC1(O)CC(OC2CC(N(C)C)C(OC3CC(O)C(O)C(C)O3)C(C)O2)c2c(cc3c(c2O)C(=O)c2c(O)cccc2C3=O)C1O (centres unmarked)"
qualifier_symbol = "="
observed = 400

[[record]]
compound = "CCC1(O)CC(OC2CC(N(C)C)C(OC3CC(O)C(OC4CC(O)C(O)C(C)O4)C(C)O3)C(C)O2)c2c(cc3c(c2O)C(=O)c2c(O)cccc2C3=O)C1C(=O)OC (centres unmarked)"
qualifier_symbol = "="
observed = 6

